inhibition at 1 µM reference
test system: IL-6; assay: IL-6 production from LPS-stimulated human monocytes (ELISA); assay type: cell-based; conditions: Monocyte, Conc. 1 μM
Give the number; % is assumed, so skip it.

Guide cases for inhibition at 1 µM, answers given:
>>> meas_value("COc1ccc(Nc2nc(=O)cc(N)n2-c2ccccc2)cc1 [Example 2]")
65.1
>>> meas_value("COc1ccc(-n2c(N)cc(=O)nc2Nc2ccccc2)cc1 [Example 9]")
75.4
>>> meas_value("Nc1cc(=O)nc(Nc2ccccc2)n1-c1ccc(Cl)cc1 [Example 11]")
59.5
>>> meas_value("Nc1cc(=O)nc(Nc2ccc(Cl)cc2)n1-c1ccccc1 [Example 6]")
44.6

For the compound shown here, CCOc1ccc(Nc2nc(=O)cc(N)n2-c2ccccc2)cc1 [Example 3] , give the reported inhibition at 1 µM.
82.3

For the compound shown here, CSc1ccc(Nc2nc(=O)cc(N)n2-c2ccccc2)cc1 [Example 4] , give the reported inhibition at 1 µM.
56.7
